# Tested on: T-47D breast
# test method notes: NCI-60 one-dose screen, 48 h (100 = growth as untreated, 0 = no growth, -100 = all killed)
# condition: 10 µM unless noted
Compounds without any hit were thinned out: in the full panel of roughly 83,000, 20% have a hit.
measured parameter: growth (%)
Answers are plain numbers, in %.

Example compounds with recorded growth:
// returns reported growth for input `CCN1CCN(c2nc(C)cc(N(CCNc3ccnc4cc(Cl)ccc34)Cc3ccc4c(c3)OCO4)n2)CC1`
-51.7

Which growth reading was recorded for the compound `Cc1c(N)ccc(-c2ccc(N)c(C)c2S(=O)(=O)O)c1S(=O)(=O)O` ?
106

// growth lookup, key: `CC[C@H](Nc1ncnc2nc[nH]c12)c1nc2cccc(F)c2c(=O)n1-c1ccccc1`
-4.25

Dear colleague, could you send me growth for each of the items below? Thanks.
1. C=C1[C@@H](O)C[C@H]2C(C)(C)C[C@H](Cl)C[C@]2(C)[C@H]1C[C@H](O)[C@H]1CC(=O)NC1=O
2. CCN1CCN(c2nc(C)cc(N(CCCNc3ccnc4cc(Cl)ccc34)Cc3ccc4c(c3)OCO4)n2)CC1
3. COc1ccc(COc2cc3oc(=O)c4cc(C(C)O)ccc4c3cc2OC)cc1 (centres undefined)

1: -20.3; 2: -60.9; 3: 44.2

Below is a list of compounds. For each, state its recorded growth.
1. COc1cccc(NC(=O)Nc2ccc(Nc3ncnc4sc5c(c34)CCN(C(=O)CCl)C5)cc2)c1
2. Cc1cc(N(CCNc2ccnc3cc(Cl)ccc23)Cc2cccs2)nc(Cl)n1
3. CCN(CC)C(=O)C[N+](C)(C)CCOC(c1ccccc1)c1ccccc1

86.6
-34.3
105
